Values were extracted from PubChem BioAssay (EPA / NIEHS).

TARGET OF ASSAY: Cellular tumor antigen p53 (Homo sapiens)
TEST SUMMARY: TOX21_p53_BLA_p5_ratio: Tox21 HCT-116 p53 Agonism Beta-lactamase Assay, Ratio, Phase 5 (AID 2283599)
Inconclusive results are not listed. Activity calls are given as the source filed them. Rule for the calls: active = hit-call score of the fitted dose curve at least 0.9, where 1 is the maximum; inconclusive = response in the unintended direction; inactive = score below 0.9.
Hi! Could you answer with just one of these? True = active, False = inactive

Q) Called result for "C=CCCCCCCCCC(=O)OCCCC"
A) False

Q) Can you handle "O=[N+]([O-])C1(Br)COCOC1" next?
A) False

Q) Can you handle "O=c1[nH]nc(-c2ccc([N+](=O)[O-])o2)o1" next?
A) False

Q) Can you handle "CC(=O)NS(=O)(=O)c1ccc(N)cc1" next?
A) False

Q) Can you handle O=C(O)CC(C(=O)O)C(CC(=O)O)C(=O)O (stereo not drawn) next?
A) False

Q) Can you handle "CCCCCCCCO[C@@H]1O[C@H](CO)[C@@H](O)[C@H](O)[C@H]1O" next?
A) False

Q) Can you handle "Cc1cccc(N)n1" next?
A) False

Q) Can you handle "NC(CO)(CO)CO" next?
A) False

Q) Can you handle "CCOC(=O)Cc1cccc2ccccc12" next?
A) False

Q) Can you handle CC=C1CC2C=CC1C2 (stereo not drawn) next?
A) False

Q) Can you handle "CC(=O)[C@@]1(O)CC[C@H]2[C@@H]3C[C@H](C)C4=CC(=O)C=C[C@]4(C)[C@@]3(F)[C@@H](O)C[C@@]21C" next?
A) False

Q) Can you handle "CCC(=O)Oc1ccc(/C(CC)=C(\CC)c2ccc(OC(=O)CC)cc2)cc1" next?
A) True

Q) Can you handle "CC(C)=CCC/C(C)=C\C#N" next?
A) False

---

TEST SUMMARY: ATG_MRE_CIS: Attagene CIS-FACTORIAL HepG2 Assay for human Metal Responsive Element (MRE) (AID 2282954)
DETAILS: HepG2 MRE cis-reporter transcription, Attagene multiplex; actives raise or lower the signal
Active and inactive are the calls of the source. How the source made its calls: active means hit-call score of the fitted dose curve at least 0.9, where 1 is the maximum; inactive means score below 0.9.
Hi! Could you answer with just one of these? 1 for active, -1 for inactive

Q) Called result for "CC(C)CCCCCOC(=O)CCS"
A) -1

Q) Can you handle "COc1c2ccoc2cc2oc(=O)ccc12" next?
A) -1

Q) Can you handle CCCCCCC(O)CO (stereo unspecified) next?
A) -1

Q) Can you handle "c1ccc(CCCc2ccncc2)cc1" next?
A) -1

Q) Can you handle "Cc1ccc2oc(=O)ccc2c1" next?
A) -1

Q) Can you handle "OCCCS" next?
A) -1

Q) Can you handle O=C(O)CC(C(=O)O)C(CC(=O)O)C(=O)O (stereo unspecified) next?
A) -1

Q) Can you handle "c1ccc(-c2ccccn2)nc1" next?
A) -1

Q) Can you handle "Oc1ccc(Cl)cc1Cc1cc(Cl)ccc1O" next?
A) 1

Q) Can you handle "O=Nc1ccc(O)cc1" next?
A) -1

Q) Can you handle "C=C[Si](OC(C)=O)(OC(C)=O)OC(C)=O" next?
A) -1

Q) Can you handle "O=C1CCCCCN1SSN1CCCCCC1=O" next?
A) 1

Q) Can you handle "O=[N+]([O-])C1(Br)COCOC1" next?
A) -1

Q) Can you handle "OCCc1ccncc1" next?
A) -1

Q) Can you handle "CCCCCCCCCCc1ccccc1" next?
A) -1

Q) Can you handle "CCCCCCCCCCOS(=O)(=O)O" next?
A) -1

Q) Can you handle "Nc1ccc2cc3ccccc3cc2c1" next?
A) -1

Q) Can you handle "CC(C)(C)C(=O)C=Cc1ccc(Cl)cc1" next?
A) 1

Q) Can you handle "Cc1cc(C)c(C)cc1C" next?
A) -1

Q) Can you handle "O=C(c1ccccc1)C1CCC1" next?
A) -1

Q) Can you handle "COC(=O)c1cc(Cl)ccc1[N+](=O)[O-]" next?
A) -1

Q) Can you handle "COc1ccc(NC(C)=O)cc1N" next?
A) -1

Q) Can you handle "CCOC(=O)CC" next?
A) -1

Q) Can you handle "CCN(CCO)c1cccc(C)c1" next?
A) -1

Q) Can you handle "C[C@]12C=CC(=O)C=C1CC[C@@H]1[C@@H]2[C@@H](O)C[C@@]2(C)[C@H]1CC[C@]2(O)C(=O)CO" next?
A) -1

Q) Can you handle "O=CN1CCCCC1" next?
A) -1

Q) Can you handle "O=c1[nH]nc(-c2ccc([N+](=O)[O-])o2)o1" next?
A) -1

Q) Can you handle c1cc(N(CC2CO2)CC2CO2)ccc1OCC1CO1 (stereo unspecified) next?
A) 1

Q) Can you handle "C=C[Si](C)(C)O[Si](C)(C)C=C" next?
A) -1

Q) Can you handle COC(=O)C1=C(C)NC(C)=C(C(=O)OCC(C)C)C1c1ccccc1[N+](=O)[O-] (stereo unspecified) next?
A) -1

Q) Can you handle "CCN(CC#N)c1cccc(C)c1" next?
A) -1

Q) Can you handle "OCCN(CCO)c1ccccc1" next?
A) -1

Q) Can you handle "CCOC(=O)NNc1nncc2ccccc12" next?
A) -1

Q) Can you handle CC(CC=O)c1ccccc1 (stereo unspecified) next?
A) 1

Q) Can you handle "O=P(O)(O)Oc1ccccc1" next?
A) -1

Q) Can you handle "COC(=O)c1sccc1S(N)(=O)=O" next?
A) -1

Q) Can you handle "CC(C)(C)c1ccc(OC(=O)c2ccccc2O)cc1" next?
A) -1

Q) Can you handle "Nc1ccc(N)c(Cl)c1" next?
A) -1

Q) Can you handle "CCCCCCCCCCCCCOP(=O)(O)O" next?
A) -1

Q) Can you handle "CCO[Si](C)(OCC)OCC" next?
A) -1

Q) Can you handle "N#CCc1ccc(Cl)cc1Cl" next?
A) -1

Q) Can you handle "CCCCCCCC[N+](C)(CCCCCCCC)CCCCCCCC" next?
A) 1

Q) Can you handle "CC(=O)c1ccc[nH]1" next?
A) -1

Q) Can you handle "CCC(=O)Oc1ccc(/C(CC)=C(\CC)c2ccc(OC(=O)CC)cc2)cc1" next?
A) 1

Q) Can you handle "O=C(O)CCCCCCCCCC(=O)O" next?
A) -1

Q) Can you handle "Cc1cccc(C(=O)O)c1" next?
A) -1

Q) Can you handle "CCCCCCCCCCC=CC#N" next?
A) -1

Q) Can you handle "CC(=O)OCC(=O)[C@@]12N=C(C)O[C@@H]1C[C@H]1[C@@H]3CCC4=CC(=O)C=C[C@]4(C)[C@H]3[C@@H](O)C[C@@]12C" next?
A) -1

Q) Can you handle "CCO[Si](CCCN=C=O)(OCC)OCC" next?
A) -1

Q) Can you handle "C1CN(SSN2CCOCC2)CCO1" next?
A) -1

Q) Can you handle "c1c[nH]cn1" next?
A) -1

Q) Can you handle "O=C(Nc1ccccc1)c1ccccc1O" next?
A) -1

Q) Can you handle CCCC(C)CCC(C)=O (stereo unspecified) next?
A) -1

Q) Can you handle "O=C(O)C(c1ccc(Cl)cc1)c1ccc(Cl)cc1" next?
A) -1

Q) Can you handle "COC(F)(F)C(F)(C(F)(F)F)C(F)(F)F" next?
A) -1

Q) Can you handle "Cc1c(C)c([N+](=O)[O-])c(C(C)(C)C)c([N+](=O)[O-])c1C" next?
A) -1

Q) Can you handle "COC=O" next?
A) -1

Q) Can you handle CCC(C)(C)C1CCCCC1OC(C)=O (stereo unspecified) next?
A) -1

Q) Can you handle "Cc1ccc(N)c([N+](=O)[O-])c1" next?
A) -1

Q) Can you handle "C=CC(C)(C)C" next?
A) -1

Q) Can you handle "NCCCN1CCN(CCCN)CC1" next?
A) -1

---

TARGET OF ASSAY: Estrogen receptor (Homo sapiens)
TEST SUMMARY: OT_ER_ERaERa_1440: Odyssey Thera (OT) 24-hour HEK293T Protein-Complementation Assay for Estrogen Receptor-alpha/-alpha Homodimer (AID 2283349);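 note: hits raise fluorescence above DMSO for agonists and antagonists alike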
Calls of active or inactive are those of the source. The calls were made as follows: active = hit-call score of the fitted dose curve at least 0.9, where 1 is the maximum; inconclusive = response in the unintended direction; inactive = score below 0.9.
Hi! Could you answer with just one of these? Y (active), N (inactive)

Q) Called result for O=C(OCC1CCC2OC2C1)C1CCC2OC2C1 (stereo not given)
A) N

Q) Can you handle "CCCCCCCC[N+](C)(CCCCCCCC)CCCCCCCC" next?
A) N

Q) Can you handle "CNC(=S)NN" next?
A) N

Q) Can you handle "Cc1ccc(C(C)(C)C)cc1" next?
A) N

Q) Can you handle "O=C1CCCC1" next?
A) N

Q) Can you handle "CCOC(=O)CC" next?
A) N

Q) Can you handle "CCCCCCCCO[C@@H]1O[C@H](CO)[C@@H](O)[C@H](O)[C@H]1O" next?
A) N

Q) Can you handle "NC(=O)N=NC(N)=O" next?
A) N

Q) Can you handle "CCCCCCCCCCOS(=O)(=O)O" next?
A) N

Q) Can you handle "Cc1ccc(C(C)c2ccc(C)c(C)c2)cc1C" next?
A) Y

Q) Can you handle "C1=Cc2ccccc2C1" next?
A) N

Q) Can you handle "O=c1cc(-c2ccccc2)oc2ccccc12" next?
A) N

Q) Can you handle "CN(C)c1ccc(N=Nc2ccccc2C(=O)O)cc1" next?
A) N

Q) Can you handle "OC1CCCCCCCCCCC1" next?
A) N

Q) Can you handle "CC/C=C\C/C=C\C/C=C\CCCCCCCC(=O)O" next?
A) N

Q) Can you handle "Cc1ccc(N/N=c2\c(=O)cc/c(=N/Nc3ccc(S(=O)(=O)O)cc3)c2=O)c(C)c1" next?
A) N

Q) Can you handle "C=CC(=O)NC(C)(C)CS(=O)(=O)O" next?
A) N

Q) Can you handle "CC1=CC[C@H]2C[C@@H]1C2(C)C" next?
A) N

Q) Can you handle "OC1CCCC1" next?
A) N

Q) Can you handle "NC(CO)(CO)CO" next?
A) N

Q) Can you handle "CC(C)c1ccc2cc(C(C)C)ccc2c1" next?
A) N

Q) Can you handle CC1=NN(c2cc(S(=O)(=O)O)ccc2Cl)C(=O)C1N=Nc1ccccc1 (stereo not given) next?
A) N

Q) Can you handle "C=C[Si](C)(C)O[Si](C)(C)C=C" next?
A) N

Q) Can you handle "CCCCCCCC/C=C\CCCCCCCC(=O)O" next?
A) N

Q) Can you handle "CC(C)(C)c1ccc(-c2ccc(C(C)(C)C)cc2)cc1" next?
A) N

Q) Can you handle "CC(C)=CCC[C@H](C)CCO" next?
A) N

Q) Can you handle "CC(=O)[C@H]1[C@H](C#N)C[C@H]2[C@@H]3CC=C4C[C@@H](O)CC[C@]4(C)[C@H]3CC[C@@]21C" next?
A) N

Q) Can you handle "C1CN(SSN2CCOCC2)CCO1" next?
A) N

Q) Can you handle "O=C(C=Cc1ccccc1)OCc1ccccc1" next?
A) N

Q) Can you handle "O=C(c1ccccc1)C1CCC1" next?
A) N
